Assay: Selectivity ratio of IC50 for NR1-1a/NR2A receptor to IC50 for GluR1
Ratio IC50 strictly under 8 means criterion met; at 8 or over means criterion not met.

Consider NCCCNCCCCNCCCNC(=O)[C@H](CC1CCCCC1)NC(=O)c1ccc(-c2ccccc2)cc1 . Does its Ratio IC50 lie strictly below 8?
criterion not met

====

I'd be grateful if you could share measured IC50 for these entries.
Biological target: Glutamate NMDA receptor; GRIN1/GRIN2A (Homo sapiens, UniProt Q05586+Q12879)
Sequence (Q12879 whole entry, other chains not shown): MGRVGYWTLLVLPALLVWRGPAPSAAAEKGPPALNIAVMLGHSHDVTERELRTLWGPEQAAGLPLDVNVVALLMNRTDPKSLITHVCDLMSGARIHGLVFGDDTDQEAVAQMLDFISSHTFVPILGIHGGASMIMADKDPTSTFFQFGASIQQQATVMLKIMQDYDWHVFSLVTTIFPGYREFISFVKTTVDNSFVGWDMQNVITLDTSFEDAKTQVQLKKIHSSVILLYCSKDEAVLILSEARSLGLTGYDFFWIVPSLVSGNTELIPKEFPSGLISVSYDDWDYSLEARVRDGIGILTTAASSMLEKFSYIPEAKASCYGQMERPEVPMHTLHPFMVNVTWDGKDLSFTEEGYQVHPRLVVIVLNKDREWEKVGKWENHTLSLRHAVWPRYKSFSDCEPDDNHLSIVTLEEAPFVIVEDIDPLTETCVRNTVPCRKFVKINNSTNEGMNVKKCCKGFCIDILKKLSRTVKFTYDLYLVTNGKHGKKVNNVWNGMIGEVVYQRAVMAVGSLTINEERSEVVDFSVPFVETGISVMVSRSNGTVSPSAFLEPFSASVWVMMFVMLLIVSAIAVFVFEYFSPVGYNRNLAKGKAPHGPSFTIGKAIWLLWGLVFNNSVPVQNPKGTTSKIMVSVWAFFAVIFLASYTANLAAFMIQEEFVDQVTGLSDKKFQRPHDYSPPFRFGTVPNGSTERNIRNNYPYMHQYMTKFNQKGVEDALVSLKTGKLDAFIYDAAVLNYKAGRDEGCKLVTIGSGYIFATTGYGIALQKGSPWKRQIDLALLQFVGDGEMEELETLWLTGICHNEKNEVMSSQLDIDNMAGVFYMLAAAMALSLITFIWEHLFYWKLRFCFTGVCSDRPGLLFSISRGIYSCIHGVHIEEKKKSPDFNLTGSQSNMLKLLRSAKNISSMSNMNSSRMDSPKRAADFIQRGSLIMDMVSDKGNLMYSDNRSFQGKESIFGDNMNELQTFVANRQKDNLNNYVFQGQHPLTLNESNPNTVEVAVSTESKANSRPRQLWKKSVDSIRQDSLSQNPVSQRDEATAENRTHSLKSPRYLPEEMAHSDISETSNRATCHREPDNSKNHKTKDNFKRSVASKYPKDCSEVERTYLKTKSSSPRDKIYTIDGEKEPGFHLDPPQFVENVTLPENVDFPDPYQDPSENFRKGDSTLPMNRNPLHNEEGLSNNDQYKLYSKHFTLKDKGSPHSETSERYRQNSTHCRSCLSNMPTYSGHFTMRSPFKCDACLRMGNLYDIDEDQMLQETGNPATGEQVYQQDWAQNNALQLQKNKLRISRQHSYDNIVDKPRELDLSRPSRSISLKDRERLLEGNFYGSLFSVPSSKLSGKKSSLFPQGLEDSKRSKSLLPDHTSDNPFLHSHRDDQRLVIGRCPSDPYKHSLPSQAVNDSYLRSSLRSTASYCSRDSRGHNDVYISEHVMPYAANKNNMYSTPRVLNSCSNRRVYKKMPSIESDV
Test: Antagonist activity at NR1-1a/NR2A receptor expressed in Xenopus laevis oocytes assessed as inhibition of glutamate/glycine-induced current at -60mV holding potential by two-electrode voltage-clamp electrophysiology
Assay type: functional, cell-based, Oocyte
Numbers only, in µM.

Some solved entries appear below for comparison.
{"molecule": "NCCCNCCCCNCCCNC(=O)[C@H](CC1CCCCC1)NC(=O)Cc1cccc2ccccc12", "targetSystem": "Glutamate NMDA receptor; GRIN1/GRIN2A (Homo sapiens, UniProt Q05586+Q12879)", "assayResult": 0.047}
{"molecule": "CCCC(=O)N[C@@H](Cc1ccc(O)cc1)C(=O)NCCCNCCCCNCCCN [PHILANTHOTOXIN 343]", "targetSystem": "Glutamate NMDA receptor; GRIN1/GRIN2A (Homo sapiens, UniProt Q05586+Q12879)", "assayResult": 2.74}
{"molecule": "NCCCNCCCCNCCCNC(=O)[C@H](CCCNC(=O)Cc1ccccc1)NC(=O)C1CCCCC1", "targetSystem": "Glutamate NMDA receptor; GRIN1/GRIN2A (Homo sapiens, UniProt Q05586+Q12879)", "assayResult": 1.03}
{"molecule": "CCCC(=O)N[C@@H](CC1CCCCC1)C(=O)NCCCNCCCCNCCCN", "targetSystem": "Glutamate NMDA receptor; GRIN1/GRIN2A (Homo sapiens, UniProt Q05586+Q12879)", "assayResult": 4.38}
{"molecule": "NCCCNCCCCNCCCNC(=O)[C@H](CC1CCCCC1)NC(=O)c1ccc(-c2ccccc2)cc1", "targetSystem": "Glutamate NMDA receptor; GRIN1/GRIN2A (Homo sapiens, UniProt Q05586+Q12879)", "assayResult": 1.45}

Could I get IC50 for every one of these entries?
1. NCCCNCCCCNCCCNC(=O)[C@H](CC1CCCCC1)NC(=O)CC12CC3CC(CC(C3)C1)C2
2. NCCCNCCCCNCCCNC(=O)[C@H](CNC(=O)Cc1ccccc1)NC(=O)C1CCCCC1
3. NCCCNCCCCNCCCNC(=O)[C@H](CC1CCCCC1)NC(=O)C1CC1
4. NCCCNCCCCNCCCNC(=O)[C@H](CC1CCCCC1)NC(=O)C1CCCCC1

1: 0.794; 2: 2.81; 3: 2.57; 4: 0.656

====

Experiment: Selectivity ratio of IC50 for NR1-1a/NR2A receptor to IC50 for GluR1
For each entry below, report its Ratio IC50 value.

{"inputSmiles": "NCCCNCCCCNCCCNC(=O)[C@H](CC1CCCCC1)NC(=O)CC12CC3CC(CC(C3)C1)C2", "Ratio IC50": 8}
{"inputSmiles": "CCCC(=O)N[C@@H](CC1CCCCC1)C(=O)NCCCNCCCCNCCCN", "Ratio IC50": 137}
{"inputSmiles": "NCCCNCCCCNCCCNC(=O)[C@H](CC1CCCCC1)NC(=O)C1CCCCC1", "Ratio IC50": 31}

Moving on to another compound below.
I would be grateful if you could share the reported Ratio IC50 for NCCCNCCCCNCCCNC(=O)[C@H](CC1CCCCC1)NC(=O)Cc1cccc2ccccc12 .
1
